system: NCI-H358 (KRAS G12C mutation); test: Proliferation inhibition measured by CTG, NCI-H358; type: cell-based, human; conditions: Homo sapiens, NCI-H358, 120 h, CellTiter Glo, 120 hours incubation
READOUT LABEL: IC50

Item C[C@@H]1Cc2cncc(F)c2CN1c1nc(OC[C@H]2CCCCN2C)nc2c1CCN(c1cccc3cccc(F)c13)C2 [Compound 30] has what recorded IC50? ≤ 1000 nM

Which IC50 is listed for C[C@H]1Cc2cncc(F)c2CN1c1nc(OC[C@@H]2CCCN2C)nc2c1CCN(c1cccc3cnccc13)C2 [Compound 19] ? 1000 to 10000 nM

Requested field: IC50. Item: C[C@H]1Cc2cncc(F)c2CN1c1nc(OC[C@H]2CCCN2C)nc2c1CCN(c1cccc3cccc(F)c13)C2 [Compound 22] ≤ 1000 nM

Could you tell me which IC50 is on file for CC1Cc2cncc(F)c2CN1c1nc(OC[C@@H]2CCCN2C)nc2c1CO[C@H](c1cccc3cccc(Cl)c13)C2 (stereo partly shown) [Compound 11] ? 1000 to 10000 nM

====

system: NCI-H358 (KRAS G12C mutation); assay: Proliferation inhibition measured by CTG, NCI-H358; type: cell-based, human; settings: Homo sapiens, NCI-H358, 120 h, CellTiter Glo, 120 hours incubation
pIC50: −log10 of the molar value.
For each record, write down the corresponding pIC50.

Requested read-out: pIC50. Entry: CC1Cc2cncc(F)c2CN1c1nc(OC[C@@H]2CCCN2C)nc2c1CCN(c1cccc3cccc(Cl)c13)C2 (single isomer, unassigned) 5.00 to 6.00

I'd like to know its pIC50. The compound in question is `C[C@H]1Cc2cncc(F)c2CN1c1nc(OC[C@@H]2CCCN2C)nc2c1CCN(c1cccc3ccncc13)C2` 5.00 to 6.00

Suppose we examine the compound `C[C@@H]1Cc2cncc(F)c2CN1c1nc(OC[C@@H]2CCCN2C)nc2cc(-c3cccc4cccnc34)ccc12` ; what pIC50 value has been reported? ≥ 6.00

Which pIC50 is reported for this compound? `C[C@H]1Cc2cncc(F)c2CN1c1nc(OC[C@@H]2CCCN2C)nc2c1CCN(c1cncc3ccccc13)C2` 5.00 to 6.00

Dear colleague, I am looking for the recorded pIC50 of the following compound: `C[C@@H]1Cc2cncc(F)c2CN1c1nc(OC[C@@H]2CCCN2C)nc2cc(-c3ccc(F)c4sc(N)nc34)ccc12` ≥ 6.00

For the compound `C[C@H]1Cc2cncc(F)c2CN1c1nc(OC[C@@H]2CCCN2C)nc2c1CCN(c1cccc3cccnc13)C2` , what pIC50 is on record? ≥ 6.00

May I ask what pIC50 has been recorded for `C[C@@H]1Cc2cncc(F)c2CN1c1nc(O[C@@H](C)CN(C)C)nc2c1CCN(c1cccc3cccc(F)c13)C2` ? ≥ 6.00

For `COc1cc2c(cn1)CCN(c1nc(OC[C@@H]3CCCN3C)nc3c1CCN(c1cccc4cccc(Cl)c14)C3)C2` , what is its reported pIC50? 5.00 to 6.00

Quick one: pIC50 of `C[C@H]1Cc2cncc(F)c2CN1c1nc(OC[C@@H]2CCCN2C)nc2c1CCN(c1cccc3ncccc13)C2` ? 5.00 to 6.00

What value of measured pIC50 is listed for `C[C@H]1Cc2cncc(F)c2CN1c1nc(OC[C@@H]2CCCN2C)nc2c1CCN(c1ccnc3ccccc13)C2` ? 5.00 to 6.00

// query pIC50 value for entry `C[C@H]1Cc2cncc(F)c2CN1c1nc(OC[C@@H]2CN(C)CCN2C)nc2c1CCN(c1cccc3cccc(F)c13)C2` 5.00 to 6.00

# get_value(readout='pIC50', item= `C[C@H]1Cc2cncc(F)c2CN1c1nc(OC[C@H]2COCCN2C)nc2c1CCN(c1cccc3cccc(F)c13)C2` ) 5.00 to 6.00

Name the recorded pIC50 for `C[C@H]1Cc2cncc(F)c2CN1c1nc(OC[C@@H]2CCCN2C)nc2cc(-c3cccc4cccc(F)c34)ccc12` . 5.00 to 6.00

Item under review: CC1Cc2cncc(F)c2CN1c1nc(OC[C@@H]2CCCN2C)nc2c1CCN(c1cc(O)cc3cccc(Cl)c13)C2 (some centres unmarked) . Reported pIC50? ≥ 6.00

====

Assignment: determine reported IC50 for the given compounds.
tested on: AGS (gastric cancer cell line with KRAS G12D mutation); assay: Proliferation inhibition measured by CTG, AGS; type: cell-based; details: 120 h, CellTiter Glo, 120 hours incubation

Please tell me: IC50 of C[C@H]1Cc2cncc(F)c2CN1c1nc(OC[C@H]2COCCN2C)nc2c1CCN(c1cccc3cccc(F)c13)C2 [Compound 24] , system AGS (gastric cancer cell line with KRAS G12D mutation)? 1000 to 10000 nM

Short answer please: IC50, AGS (gastric cancer cell line with KRAS G12D mutation), entry COc1cc2c(cn1)CCN(c1nc(OC[C@@H]3CCCN3C)nc3c1CCN(c1cccc4cccc(Cl)c14)C3)C2 [Compound 2] 1000 to 10000 nM

Give the reported IC50 for C[C@@H]1Cc2cncc(F)c2CN1c1nc(OC[C@@H]2CCCN2C)nc2c1CCN(c1cccc3cccc(F)c13)C2 [Compound 35] (system: AGS (gastric cancer cell line with KRAS G12D mutation)). ≤ 1000 nM

Find IC50 (AGS (gastric cancer cell line with KRAS G12D mutation)) for the entry C[C@H]1Cc2cncc(F)c2CN1c1nc(OC[C@@H]2CCCN2C)nc2c1CCN(c1cccc3ccncc13)C2 [Compound 18] 1000 to 10000 nM

====

test system: A375 (wild type malignant melanoma cell line); test: Proliferation inhibition measured by CTG, A375; type: cell-based; conditions: CellTiter Glo, 120 hours incubation
pIC50: −log10 of the molar value.
READOUT LABEL: pIC50

I'm curious: which pIC50 was measured for CC1Cc2cncc(F)c2CN1c1nc(OC[C@@H]2CCCN2C)nc2c1CCN(c1cccc3cccc(Cl)c13)C2 (single isomer, unassigned) [Compound 4-2] tested on A375 (wild type malignant melanoma cell line)? ≥ 6.00

Look up pIC50 with A375 (wild type malignant melanoma cell line) for this molecule: CC1Cc2cnccc2CN1c1nc(OC[C@@H]2CCCN2C)nc2c1CCN(c1cccc3cccc(Cl)c13)C2 (stereo partly shown) [Compound 3-2] ≥ 6.00

# value lookup — system A375 (wild type malignant melanoma cell line), readout pIC50, item CC1Cc2cnccc2CN1c1nc(OC[C@@H]2CCCN2C)nc2c1CCN(c1cccc3cccc(Cl)c13)C2 (stereo partly shown) [Compound 3] ≥ 6.00

A375 (wild type malignant melanoma cell line) / pIC50 / CC1Cc2cncc(F)c2CN1c1nc(OC[C@@H]2CCCN2C)nc2c1CO[C@H](c1cccc3cccc(Cl)c13)C2 (single isomer, unassigned) [Compound 11-2] : value? 5.00 to 6.00

Test system A375 (wild type malignant melanoma cell line); read-out pIC50; what value for CC1Cc2cncc(F)c2CN1c1nc(OC[C@@H]2CCCCN2C)nc2c1CCN(c1cccc3cccc(Cl)c13)C2 (stereo partly shown) [Compound 9-2] ? ≥ 6.00

Param readout= pIC50; system= A375 (wild type malignant melanoma cell line); entry= CC1Cc2cncc(F)c2CN1c1nc(OC[C@@H]2CCCN2C)nc2c1CCN(c1cc(O)cc3cccc(Cl)c13)C2 (stereo partly shown) [Compound 5-2] ; returns value. ≥ 6.00

Item: CC1Cc2cncc(F)c2CN1c1nc(OC[C@@H]2CCCN2C)nc2c1CO[C@H](c1cccc3cccc(Cl)c13)C2 (single isomer, unassigned) [Compound 11-1] Test system: A375 (wild type malignant melanoma cell line) Read-out: pIC50 Value: ? 5.00 to 6.00

====

tested on: AGS (gastric cancer cell line with KRAS G12D mutation); test: Proliferation inhibition measured by CTG, AGS; type: cell-based; conditions: 120 h, CellTiter Glo, 120 hours incubation
pIC50: −log10 of the molar value.
READOUT LABEL: pIC50

Please report the recorded pIC50 for `C[C@H]1Cc2cncc(F)c2CN1c1nc(OC[C@@H]2CCCN2C)nc2c1CCN(c1cccc3cccnc13)C2` . ≥ 6.00

Which pIC50 reading was recorded for the molecule `C[C@@H]1Cc2cncc(F)c2CN1c1nc(OC[C@@H]2CCCN2C)nc2cc(-c3cccc4cccnc34)ccc12` ? ≥ 6.00

For the molecule `C[C@@H]1Cc2cncc(F)c2CN1c1nc(OC[C@@H]2CCCCN2C)nc2c1CCN(c1cccc3cccc(F)c13)C2` , what pIC50 is on record? ≥ 6.00

Given the molecule C#Cc1c(F)ccc2cc(O)cc(N3CCc4c(nc(OC[C@@H]5CCCN5C)nc4N4Cc5c(F)cncc5CC4C)C3)c12 (stereo partly shown) , what is its reported pIC50? ≥ 6.00

Would you kindly share the measured pIC50 for CC1Cc2cnccc2CN1c1nc(OC[C@@H]2CCCN2C)nc2c1CCN(c1cccc3cccc(Cl)c13)C2 (stereo partly shown) ? 5.00 to 6.00

I would be grateful if you could share the reported pIC50 for `C[C@H]1Cc2cncc(F)c2CN1c1nc(OC[C@@H]2CCCN2C)nc2c1CCN(c1cccc3cnccc13)C2` . 5.00 to 6.00

Given the molecule `C[C@H]1Cc2cncc(F)c2CN1c1nc(OC[C@@H]2CCCN2C)nc2c1CCN(c1cccc3cccc(F)c13)C2` , what is its reported pIC50? ≥ 6.00
